System: DU-145 prostate
Experiment: NCI tumour cell line growth inhibition, 48 h
readout name: GI50

Worked cases, GI50 given:
compound structure	GI50
O=C(/C=C/c1cccc(O)c1)c1cccc(-n2cc(-c3ccc4ccccc4c3)[nH]c2=O)c1	1.75 µM
CCOC(=O)N1CCN(CCCCCOc2ccccc2C2CCCCC2)CC1	14.4 µM
OCc1ccc(N2CCOCC2)cc1Cl	> 100 µM
COc1ccc(-c2cnoc2-c2cc(OC)c3c(c2)OCCO3)cc1	0.0456 µM
COC(=O)c1ccc2c(c1)C(=O)c1c-2n(CCCN=[N+]=[N-])c(=O)c2cc([N+](=O)[O-])ccc12	70.9 µM

Now consider the entry below.
For the molecule CC(C)Oc1ccc(C(=O)Cn2ccnc2)cc1-n1c(CN2CCN(C(=O)COc3ccc(Cl)cc3)CC2)nc2ccccc2c1=O , the measured GI50 on DU-145 prostate was 9.59 µM
